Measured change in vivo at 100 mg/kg accompanies every entry in the list below.
System: hypertriglyceridemia induced by carbohydrates in male rats
assay text: Action on the hypertriglyceridemia induced by carbohydrates (fructose) in male rats
Assay type: in vivo
measurement parameters: Rattus norvegicus, 72 h, 100 mg/kg, 3-day oral pre-treatment, vs untreated control, read-out: Change in percentage of hypertriglyceridemia induced by carbohydrates
Please respond with the number in % and leave the unit unwritten.

> print(dat)
                                   compound                               measured.on  measured
1  CCOC(=O)C(C)(C)Oc1ccc(Cl)cc1 [Clofibrat, reference compound]  hypertriglyceridemia induced by carbohydrates in male rats       -15

// query What value of change in vivo at 100 mg/kg has been recorded for this entry: CC(C)(C)c1cc(C(C)(CC(=O)OCCCCCCOC(=O)CC(C)(c2ccc(O)c(C(C)(C)C)c2)c2ccc(O)c(C(C)(C)C)c2)c2ccc(O)c(C(C)(C)C)c2)ccc1O
// result -10

// query What value of change in vivo at 100 mg/kg has been recorded for this entry: CC(CCC(=O)O)(c1ccc(O)cc1)c1ccc(O)cc1 [Example 19, 4,4-Bis(4'-hydroxy-phenyl)pentanoic acid]
// result -27

// query What value of change in vivo at 100 mg/kg has been recorded for this entry: CC(C)(C)c1cc(C(C)(CCC(=O)OCCOC(=O)CCC(C)(c2ccc(O)c(C(C)(C)C)c2)c2ccc(O)c(C(C)(C)C)c2)c2ccc(O)c(C(C)(C)C)c2)ccc1O
// result -46

// query What value of change in vivo at 100 mg/kg has been recorded for this entry: CC(C)(C)c1cc(C(C(=O)O)c2cc(C(C)(C)C)c(O)c(C(C)(C)C)c2)cc(C(C)(C)C)c1O
// result -37

// query What value of change in vivo at 100 mg/kg has been recorded for this entry: CCCCOC(=O)CC(C)(c1ccc(O)c(C(C)(C)C)c1)c1ccc(O)c(C(C)(C)C)c1
// result -35

// query What value of change in vivo at 100 mg/kg has been recorded for this entry: CCCCOC(=O)CCC(C)(c1ccc(O)c(C(C)(C)C)c1)c1ccc(O)c(C(C)(C)C)c1
// result -28
